Value source: the array DNA melting data of Ke et al. (doi:10.1101/2024.01.08.574731)

# PROTOCOL_NOTES: folding enthalpy; higher = less favourable; fluorescence melt of hairpins on a sequencing array, two-state fit
# COND: sodium 0.088 M
OUTCOME_MEASURE: folding enthalpy (kcal/mol)
Dear colleague, please return just the value in kcal/mol, with no unit written.

Indicate its recorded folding enthalpy; the sequence in question is GTATTGGGAAACCAATAC (((((((....)))))))
-43.7

Tell me folding enthalpy reported for GGATAACGAAAGTTTTCC (((.(((....))).)))
-27.6

Report measured folding enthalpy; entry is GATCGTAGCTACGATC ((((((....))))))
-43.2

Please list folding enthalpy recorded for the sequence GACGGCGAAAGCCGGGTC ((((((....)))..)))
-11.3

Please look at this sequence and report its folding enthalpy: GATCTACTATAGATC ((((((...))))))
-25.1

Fill in folding enthalpy for record GATCAAGGAGTTGATC ((((((....))))))
-29.5

Respond only with folding enthalpy recorded for GGAAGTGGAAACACTTTC (.(((((....))))).)
-26.6

Let me know recorded folding enthalpy for GCTGCGCGAAAGCTGAGC (((..((....))..))) , thanks.
-13.2

Kindly indicate its recorded folding enthalpy. Item: GATCACTGTTGTGATC ((((((....))))))
-31.8

Given GCAAGGCGAAAGCTTCGC ((.(.((....)).).)) , respond with its folding enthalpy.
-12.2

For GTGCTTGGAAACAAGCAC (((((((....))))))) , write its folding enthalpy.
-38.7

Supply reported folding enthalpy belonging to this sequence: GATCTCAGATGAGATC ((((((....))))))
-36.3

Complete the entry with folding enthalpy for GATCCTGGGCAGGATC ((((((....))))))
-35.7

Return folding enthalpy for the following sequence: GATCGGTGTCCGATC ((((((...))))))
-32

Indicate its recorded folding enthalpy; the sequence in question is GTCGTTGGAAACAACGGC (.(((((....))))).)
-39.6

In one line, give reported folding enthalpy of the entry GGGAGCGAAAGCTGGCCC ((((((....)))..))) .
-14

Given the sequence GTCGCCGAAAGGCCTGAC ((((((....)))..))) , write its reported folding enthalpy.
-12.4

State its folding enthalpy: GATCGAACGGTCGATC ((((((....))))))
-51.2

Read off the recorded folding enthalpy for AACACGAAAGTGTT (((((....)))))
-18.9

Item GATCACGAAGGTGATC ((((((....)))))) : provide folding enthalpy
-32.7

Look up and state reported folding enthalpy for GATCACCCCCGTGATC ((((((....))))))
-36

Supply folding enthalpy value. Item: GTTTGCGAAAGCAGTAAC ((((((....)))..)))
-12.9

For the sequence GATCAGTAGGCTGATC ((((((....)))))) , report folding enthalpy.
-42.3

Give the reported folding enthalpy for this sequence. GATCCAGGACTGGATC ((((((....))))))
-41.1

Please supply the value of reported folding enthalpy for the item GATCTCGGGTGAGATC ((((((....))))))
-30

Given the sequence GAATAAGGAAACTTATTC (((((((....))))))) , write its reported folding enthalpy.
-33.5

Determine from records and report folding enthalpy for GTGATCGAAAGATTCAC ((((((....))).)))
-24.1

For the sequence GCTGGTGGAAACATCAGC ((((.((....)).)))) , report folding enthalpy.
-39.5

Give recorded folding enthalpy. GATCCGCATACGGATC ((((((....))))))
-37.9

Answer with the recorded folding enthalpy for the sequence listed here: GTCGGCGGAAACGCTGAC (((.(((....))).)))
-39.3

Note down folding enthalpy recorded for GTTGACGAAAGTCTTAAC ((((((....)))..)))
-10

Please give the documented folding enthalpy of GATCTAACGGTAGATC ((((((....))))))
-38.4

Give a short answer stating reported folding enthalpy for GCGTCCAAACGC ((((....)))) .
-18.8

Retrieve folding enthalpy measured for GACAACGGAAACGCTGTC ((((.((....)).)))) and print it.
-34.7

For GCAAGCGAAAGCTATGC ((((((....))).))) , write its folding enthalpy.
-23

State, in one line, measured folding enthalpy of GCTCTGCGAAAGCTGAGC ((((.((....)).))))
-41.2

Complete the entry with folding enthalpy for GCGTAAAAACGC ((((....))))
-19.9

Fill in reported folding enthalpy for this entry: GATAGAGGAAACTCTGTC ((.((((....)))).))
-32.1

Identify the reported folding enthalpy for the following entry. GCAGTGCGAAAGCGCGGC ((.(.((....)).).))
-31

// Input: GTGATCGAAAGATCCAC ((((((....))).))) . Output its folding enthalpy only.
-13.3

Annotate the sequence GATCTGAACCCAGATC ((((((....)))))) with its measured folding enthalpy.
-28.8

Provide only the value of recorded folding enthalpy for GTCCGACGAAAGTCCGAC (((.(((....))).)))
-27.5

----------
# PROTOCOL_NOTES: folding enthalpy; higher = less favourable; fluorescence melt of hairpins on a sequencing array, two-state fit
# COND: sodium 0.088 M
OUTCOME_MEASURE: folding enthalpy (kcal/mol)
Write down the numeric answer in kcal/mol and omit the unit.

# return recorded folding enthalpy for input GATCCGTTTTCGGATC ((((((....))))))
-42.2

Consider the sequence GGTAGGGGAAACTCTGCC ((.((.(....).)).)) . State its measured folding enthalpy.
-22.9

Let me know recorded folding enthalpy for GTTATCGGAAACGATGAC ((.((((....)))).)) , thanks.
-25.2

Please look at this sequence and report its folding enthalpy: GGTTGAGGAAACTCGATC (.(.(((....))).).)
-16.8

Answer with the recorded folding enthalpy for the sequence listed here: GCGATTGGAAACAGTCGC ((((.((....)).))))
-42

Identify folding enthalpy associated with the sequence GCACGACGAAAGTCTGC (((.(((....))))))
-20.8

Tell me folding enthalpy reported for CGGCGACGGAAACGTCCG (((..(((....))))))
-17.4

Read off the recorded folding enthalpy for GATCATGGGGATGATC ((((((....))))))
-29.2

Dear colleague, please send me the reported folding enthalpy for GATCACTAGGTGATC ((((((...)))))) when you can.
-40.9

Entry GGATGTGGAAACGCATTC (.(((.(....).))).) needs its folding enthalpy filled in; supply it.
-22.9

Given GACAGTGAAAACTGTC ((((((....)))))) , respond with its folding enthalpy.
-28.6

Please report the measured folding enthalpy for GCCGCAGGAAACTACGGC ((((.((....)).))))
-32.5

Indicate the recorded folding enthalpy value for this sequence: GATAAACCGAAAGGTATC (((..(((....))))))
-13.9

Entry GTATGGGGAAACCCACAC ((.((((....)))).)) needs its folding enthalpy filled in; supply it.
-18.9

Report measured folding enthalpy; entry is GTGTTGCGAAAGCACCAC (((.(((....))).)))
-30.7

Recall and state the measured folding enthalpy for GTGTTAGAAATAACAC ((((((....)))))) .
-28.6

Consider the sequence GAGATCACGAAAGTGCTC (((..(((....)))))) . State its measured folding enthalpy.
-12.1

Find the measured folding enthalpy of GTGTTCGAAAGAATTCAC ((((((....)))..))) and report it.
-10.3

Return the recorded folding enthalpy value; entry: GAAGCCGAAAGGCATTTC ((((((....)))..)))
-6.75

Annotate the sequence GGCTCACGAAAGTGGCC (((.(((....)))))) with its measured folding enthalpy.
-26.3

Given GAATCTGGAAACGGATTC (((((.(....).))))) , respond with its folding enthalpy.
-35.1

Give folding enthalpy for GAAAACACGAAAGTGTTC (((..(((....))))))
-11.9

Look up folding enthalpy of GCATGAGGAAACTTATGC ((((.((....)).)))) and report it.
-34.7

Give the reported value of folding enthalpy for this record: GTGATGCGAAAGCAACAC (((.(((....))).)))
-33.4

Assign folding enthalpy to the following record: GTCACTGCGAAAGCAGAC (((..(((....))))))
-7.51

State, in one line, measured folding enthalpy of GATCTAACTATAGATC ((((((....))))))
-29.3

Tell me folding enthalpy reported for GCCACGCGAAAGCGGTGC ((..(((....)))..))
-13.3

Note folding enthalpy for the sequence shown: GCATAGGGAAACCTACGC ((.((((....)))).))
-27.9

Item GCCCCTCCGAAAGGAGGC (((..(((....)))))) : provide folding enthalpy
-5.85

Tell me its folding enthalpy given GCCCTGCGAAAGCGCGGC (((..((....))..))) as the entry.
-21.5

Please look at this sequence and report its folding enthalpy: CGACCCCGGAAACGGTCG (((..(((....))))))
-21.3

Identify measured folding enthalpy associated with GATCGGGAATCCGATC ((((((....))))))
-38.6

Please list folding enthalpy recorded for the sequence GCACCCGAAAGGGCTTGC ((((((....)))..)))
-14.9

Hello, please tell me recorded folding enthalpy for this one: GAGCCCCGAAAGGGCCTC (((.(((....))).)))
-14.6

Hello, please tell me recorded folding enthalpy for this one: GCAACGCGAAAGCGCGGC ((..(((....)))..))
-14.8

Identify the reported folding enthalpy for the following entry. GGCCACGAAAGTGAGCC ((((((....))).)))
-27.1

Please look at this sequence and report its folding enthalpy: GCTAGGCGAAAGCGAAGC (((..((....))..)))
-15.8

Return reported folding enthalpy. Input sequence: GATCATCGCCATGATC ((((((....))))))
-35.7

Consider the sequence GATCTGGTGCAGATC ((((((...)))))) . State its measured folding enthalpy.
-31.1

State its folding enthalpy: GATCGGCTAACCGATC ((((((....))))))
-42.2

Input GCAACGACGAAAGTCTGC (((..(((....)))))) , output reported folding enthalpy.
-16.6

Report measured folding enthalpy; entry is GGATCGCGAAAGCGCTCC (((.(((....))).)))
-25.3

Please give the documented folding enthalpy of GTGCAAACGAAAGTTCAC (((..(((....))))))
-7.78

Identify the reported folding enthalpy for the following entry. GTCCTGGAAACAGGAC ((((((....))))))
-38.6

Note down folding enthalpy recorded for GACACCGAAAGGTCAGTC ((((((....)))..)))
-12.5
